Origin of the recorded values: patent US20230416363A1

Molecular target: T1, mPD-1-Fc (mouse; human, UniProt Q02242 25-167, limits assumed)
T1 construct: domain: IgV domain; not shown: human IgG1 Fc
T1 sequence (looked up): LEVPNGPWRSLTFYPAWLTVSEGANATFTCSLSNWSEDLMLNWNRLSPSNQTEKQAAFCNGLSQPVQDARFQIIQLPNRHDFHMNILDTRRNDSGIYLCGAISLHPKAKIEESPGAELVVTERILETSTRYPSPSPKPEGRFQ
Test: SPR Biacore, mPD1-Fc
# pKd values compiled below
Please express pKd as -log10 of the molar concentration.

R3A9 (antibody, V domains shown, also called 7115A; mPD1 parental (R3A9)) VH: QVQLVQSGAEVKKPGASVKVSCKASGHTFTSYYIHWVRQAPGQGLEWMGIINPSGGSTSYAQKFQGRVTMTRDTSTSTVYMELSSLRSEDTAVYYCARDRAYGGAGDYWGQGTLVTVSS VL: DIQMTQSPSSLSASVGDRVTITCRASQSVGTWLAWYQQKPGKAPKLLIYSASTLQSGVPSRFSGSGSGTDFTLTISSLQPEDFATYYCQQSYSAPLTFGGGTKVEIK; 7.92
m2A1 (antibody, V domains shown, R3A9 derivative; also called m2AM (apparent misprint)) VH: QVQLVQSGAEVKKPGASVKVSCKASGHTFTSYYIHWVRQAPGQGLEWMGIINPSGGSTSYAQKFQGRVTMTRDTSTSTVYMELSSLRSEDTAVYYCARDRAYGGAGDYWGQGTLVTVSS VL: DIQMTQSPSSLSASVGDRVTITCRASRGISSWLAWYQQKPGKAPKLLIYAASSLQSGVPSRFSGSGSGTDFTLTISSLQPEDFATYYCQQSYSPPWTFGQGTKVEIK; 8.56
m3A7 (antibody, V domains shown, R3A9 derivative; also called 7115C) VH: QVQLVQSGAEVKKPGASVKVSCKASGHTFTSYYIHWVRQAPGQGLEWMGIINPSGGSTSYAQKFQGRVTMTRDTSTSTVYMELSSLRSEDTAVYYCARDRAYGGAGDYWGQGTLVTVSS VL: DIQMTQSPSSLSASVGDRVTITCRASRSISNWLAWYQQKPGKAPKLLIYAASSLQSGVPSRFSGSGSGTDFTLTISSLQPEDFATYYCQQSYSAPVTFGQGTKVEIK; 8.60

Challenge: Param item = m2C1 (antibody, V domains shown, R3A9 derivative; also called m3CM (apparent misprint)) VH: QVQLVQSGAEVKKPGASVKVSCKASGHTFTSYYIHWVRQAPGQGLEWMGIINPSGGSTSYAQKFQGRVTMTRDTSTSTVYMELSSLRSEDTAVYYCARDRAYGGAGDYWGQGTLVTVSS VL: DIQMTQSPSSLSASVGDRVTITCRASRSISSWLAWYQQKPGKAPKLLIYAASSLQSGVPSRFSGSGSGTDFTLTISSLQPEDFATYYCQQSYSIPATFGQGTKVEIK ; retrieve measured pKd.
Response given: 8.54
